test: Pharmacokinetics in ICR mouse; assay type: in vivo; settings: male, plasma, po, intragastric administration 5 mg/kg, read-out: Half-life period T1/2(h) (converted)
measurementKind: half-life (h)
Give just the number in h; leave the unit off.

Problem: For COCC[C@@H](C(=O)Nc1ccc2nn(C)cc2c1)N1CC(=O)N(c2cc(Cl)ccc2-n2cc(Cl)nn2)CC1=O [Example 96] , what is its reported half-life?
Solution: 1.84

---

molecular target: Native human Factor XIa protease (Homo sapiens, UniProt P03951); construct: The Native human Factor XIa protease was purchased from Abcam; purchased Abcam ab62411; assay: Inhibition of activity of Factor XIa protease (chromogenic substrate S-2366); assay type: biochemical; conditions: S-2366 1 mM, 37° C. 10 minutes, absorption at 405 nm
Sequence (P03951 388-625 limits assumed): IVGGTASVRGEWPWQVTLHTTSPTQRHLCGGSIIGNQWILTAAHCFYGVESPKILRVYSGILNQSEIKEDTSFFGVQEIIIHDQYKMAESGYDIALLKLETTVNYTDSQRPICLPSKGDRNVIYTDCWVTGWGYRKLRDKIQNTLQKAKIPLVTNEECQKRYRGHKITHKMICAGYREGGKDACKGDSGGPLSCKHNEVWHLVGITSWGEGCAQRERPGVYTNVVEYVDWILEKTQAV
Sequence (P03951 19-387 partner limits assumed): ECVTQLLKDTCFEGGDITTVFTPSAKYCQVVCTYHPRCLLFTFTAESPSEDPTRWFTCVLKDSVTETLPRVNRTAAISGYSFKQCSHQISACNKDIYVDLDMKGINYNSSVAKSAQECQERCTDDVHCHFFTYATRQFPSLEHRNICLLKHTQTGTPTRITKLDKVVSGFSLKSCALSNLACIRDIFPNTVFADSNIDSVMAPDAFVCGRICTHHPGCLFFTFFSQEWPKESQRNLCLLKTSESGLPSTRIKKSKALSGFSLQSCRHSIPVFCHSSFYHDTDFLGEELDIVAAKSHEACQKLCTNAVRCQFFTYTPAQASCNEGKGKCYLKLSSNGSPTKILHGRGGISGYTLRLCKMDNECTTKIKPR
measurementKind: IC50 (nM)
// return numeric value only (unit: nM, not printed)

A selection of reference data follows.
| molecule | IC50 (nM) |
| --- | --- |
| O=C(Nc1ccc(N2CCOC2=O)cc1)C(Cc1ccccc1)N1CC(=O)N(c2cc(Cl)ccc2-n2cnnn2)CC1=O (stereo not shown) [Example 14] | 44 |
| COc1nccc2cc(NC(=O)C(Cc3ccccc3)N3CC(=O)N(c4cc(Cl)ccc4-n4cnnn4)CC3=O)ccc12 (stereo not shown) [Example 23] | 43.2 |
| O=C1Cc2cc(NC(=O)C(Cc3ccccc3)N3CC(=O)N(c4cc(Cl)ccc4-n4cnnn4)CC3=O)ccc2N1 (stereo not shown) [Example 13] | 14.9 |

Problem: IC50 for [2H]C([2H])([2H])n1cc2cc(NC(=O)C(Cc3ccc(F)cc3)N3CC(=O)N(c4cc(Cl)ccc4-n4cc(Cl)nn4)CC3=O)ccc2n1 (stereo not shown) [Example 114] ?
Solution: 48.6

Problem: # lookup: IC50 of NC(=O)c1ccc(NC(=O)C(Cc2ccccc2)N2CC(=O)N(c3cc(Cl)ccc3-n3cnnn3)CC2=O)cc1 (stereo not shown) [Example 3]
Solution: 36.7

Problem: For the molecule shown here, O=C(Nc1ccc2c(cnn2C(F)F)c1)C(Cc1ccccc1)N1CC(=O)N(c2cc(Cl)ccc2-n2cnnn2)CC1=O (stereo not shown) [Example 33] , give the reported IC50.
Solution: 26.1

Problem: Sample NC(=O)c1ccc(NC(=O)C(Cc2ccccc2)N2CC(=O)N(c3cc(Cl)ccc3-n3cc(Cl)nn3)CC2=O)cc1F (stereo not shown) [Example 36] — what was its IC50?
Solution: 27.1

---

molecular target: Native human Factor XIa protease (Homo sapiens, UniProt P03951); construct: The Native human Factor XIa protease was purchased from Abcam; purchased Abcam ab62411; assay: Inhibition of activity of Factor XIa protease (chromogenic substrate S-2366); type: biochemical; details: S-2366 1 mM, 37° C. 10 minutes, absorption at 405 nm
Entries and their IC50 values follow.

Examples with their reported IC50 follow.
| compound | measurementKind | result |
| --- | --- | --- |
| Cn1cc2cc(NC(=O)C(Cc3ccc(F)cc3)N3CC(=O)N(c4cc(Cl)ccc4-n4cnnn4)CC3=O)ccc2n1 (stereo not shown) [Example 41] | IC50 | 38.5 nM |
| O=C(O)c1ccc(NC(=O)C(Cc2ccccc2)N2CC(=O)N(c3cc(Cl)ccc3-n3ccnn3)CC2=O)cc1 (stereo not shown) [Example 11] | IC50 | 24.9 nM |
| CCOC(=O)c1ccc(NC(=O)C(Cc2ccccc2)N2CC(=O)N(c3cc(Cl)ccc3-n3cnnn3)CC2=O)cc1 (stereo not shown) [Example 4] | IC50 | 49.8 nM |
| O=C1NCc2cc(NC(=O)C(Cc3ccccc3)N3CC(=O)N(c4cc(Cl)ccc4-n4cnnn4)CC3=O)ccc21 (stereo not shown) [Example 7] | IC50 | 15.5 nM |
| O=C(Nc1ccc2nccnc2c1)C(Cc1ccccc1)N1CC(=O)N(c2cc(Cl)ccc2-n2cc(Cl)nn2)CC1=O (stereo not shown) [Example 24] | IC50 | 23.2 nM |

Problem: Lab note: need IC50 for O=C(Nc1ccc(N2CCCC2=O)cc1)C(Cc1ccccc1)N1CC(=O)N(c2cc(Cl)ccc2-n2cnnn2)CC1=O (stereo not shown) [Example 10] on Native human Factor XIa protease (Homo sapiens, UniProt P03951), anyone have it?
Solution: 43.9 nM

Problem: Report IC50 for O=C(Nc1ccc2nn(C(F)F)cc2c1)[C@H](Cc1ccccc1)N1CC(=O)N(c2cc(Cl)ccc2-n2cc(Cl)nn2)CC1=O [Example 97] tested on Native human Factor XIa protease (Homo sapiens, UniProt P03951).
Solution: 21.2 nM

---

bioavailability overview
assay: Pharmacokinetics in SD rat; assay type: in vivo; details: male, plasma, po, intragastric 10 mg/kg vs injection 1 mg/kg, read-out: Bioavailability F(%)
Give the number first and the unit second.

Examples with answers:
| compound | result |
| --- | --- |
| Cn1ccc(C[C@H](C(=O)Nc2ccc3nn(C)cc3c2)N2CC(=O)N(c3cc(Cl)ccc3-n3cc(Cl)nn3)CC2=O)n1 | 54.7% |
| Cn1cc2cc(NC(=O)C(Cc3ccccc3)N3CC(=O)N(c4cc(Cl)ccc4-n4cc(Cl)nn4)CC3=O)ccc2n1 (stereo not shown) | 80.4% |
| Cn1cc2cc(NC(=O)C(Cc3ccc(F)cc3)N3CC(=O)N(c4cc(Cl)ccc4-n4cc(Cl)nn4)CC3=O)ccc2n1 (stereo in doubt) | 149% |

# input for lookup
Problem: Fill in: bioavailability of COCC[C@@H](C(=O)Nc1ccc2nn(C)cc2c1)N1CC(=O)N(c2cc(Cl)ccc2-n2cc(Cl)nn2)CC1=O is ___
Solution: 72.5%

---

experiment: Pharmacokinetics in ICR mouse; format: in vivo; conditions: male, plasma, po, intragastric administration 5 mg/kg, read-out: Curve area AUC0-t
measurementKind: AUC(0-t) (ng·h/mL)
// return numeric value only (unit: ng·h/mL, not printed)

Problem: Name the recorded AUC(0-t) for COCC[C@@H](C(=O)Nc1ccc2nn(C)cc2c1)N1CC(=O)N(c2cc(Cl)ccc2-n2cc(Cl)nn2)CC1=O .
Solution: 4330

---

assay: Pharmacokinetics in ICR mouse; type: in vivo; settings: male, plasma, iv, injection administration 1 mg/kg, read-out: Half-life period T1/2(h) (converted)
measurementKind: half-life (h)
Provide the reading as a plain figure in h.

Problem: I am curious: what half-life value has been reported for COCC[C@@H](C(=O)Nc1ccc2nn(C)cc2c1)N1CC(=O)N(c2cc(Cl)ccc2-n2cc(Cl)nn2)CC1=O [Example 96] ?
Solution: 0.664

---

assay: Pharmacokinetics in ICR mouse; assay type: in vivo; conditions: male, plasma, po, intragastric administration 5 mg/kg, read-out: Blood concentration Cmax
measurementKind: Cmax
Remember to quote the unit after the number.

Problem: // Cmax lookup, key: COCC[C@@H](C(=O)Nc1ccc2nn(C)cc2c1)N1CC(=O)N(c2cc(Cl)ccc2-n2cc(Cl)nn2)CC1=O
Solution: 2040 ng/mL

---

assay: Pharmacokinetics in SD rat; assay type: in vivo; settings: male, plasma, po, intragastric administration 10 mg/kg, read-out: Blood concentration Cmax
measurementKind: Cmax (ng/mL)
Answer in ng/mL, number only, no unit symbol.

Example entries and their recorded answers appear below.
| compound | endpointUnit | Cmax |
| --- | --- | --- |
| Cn1ccc(C[C@H](C(=O)Nc2ccc3nn(C)cc3c2)N2CC(=O)N(c3cc(Cl)ccc3-n3cc(Cl)nn3)CC2=O)n1 | ng/mL | 3420 |
| COCC[C@@H](C(=O)Nc1ccc2nn(C)cc2c1)N1CC(=O)N(c2cc(Cl)ccc2-n2cc(Cl)nn2)CC1=O | ng/mL | 1790 |
| Cn1cc2cc(NC(=O)C(Cc3ccccc3)N3CC(=O)N(c4cc(Cl)ccc4-n4cc(Cl)nn4)CC3=O)ccc2n1 (stereo not shown) | ng/mL | 1390 |
| COCCC(C(=O)Nc1ccc2nn(C)cc2c1)N1CC(=O)N(c2cc(Cl)ccc2-n2cc(Cl)nn2)CC1=O (stereo not shown) | ng/mL | 1360 |
| O=C(Nc1ccc2nn(C(F)F)cc2c1)C(Cc1ccccc1)N1CC(=O)N(c2cc(Cl)ccc2-n2cc(Cl)nn2)CC1=O (stereo not shown) | ng/mL | 1170 |

Problem: Which measured Cmax value corresponds to Cn1cc2cc(NC(=O)C(Cc3ccc(F)cc3)N3CC(=O)N(c4cc(Cl)ccc4-n4cc(Cl)nn4)CC3=O)ccc2n1 (stereo not shown) [Example 47] ?
Solution: 2860

Problem: Consider the compound shown here: Cn1ccc(CC(C(=O)Nc2ccc3nn(C)cc3c2)N2CC(=O)N(c3cc(Cl)ccc3-n3cc(Cl)nn3)CC2=O)n1 (stereo not shown) What is its recorded Cmax?
Solution: 1420

Problem: # input compound: NC(=O)c1ccc(NC(=O)C(Cc2ccccc2)N2CC(=O)N(c3cc(Cl)ccc3-n3cc(Cl)nn3)CC2=O)cc1F (stereo not shown) ; wanted: its Cmax
Solution: 798

Problem: What Cmax value was documented for this compound, Cn1cc2cc(NC(=O)C(Cc3ccc(F)cc3)N3CC(=O)N(c4cc(Cl)ccc4-n4cc(Cl)nn4)CC3=O)ccc2n1 (stereo in doubt) [Example 99] ?
Solution: 1100

Problem: I am curious: what Cmax value has been reported for Cn1cc2cc(NC(=O)C(CC3CCCCO3)N3CC(=O)N(c4cc(Cl)ccc4-n4cc(Cl)nn4)CC3=O)ccc2n1 (stereo not shown) ?
Solution: 2220
